MEASUREMENT_TARGET: alkaline phosphatase, placental type (Homo sapiens)
TEST_METHOD_NOTES: PLAP enzyme inhibitors, dose response, selectivity assay for mouse IAP inhibitor project, biochemical, uHTS hits (AID 488879)
EXPERIMENTAL_PARAMETERS: purified human placental alkaline phosphatase, enzymatic inhibition
Activity calls are given as the source filed them. The rule behind the calls is not given here.
Give your call using only these classes: active, inactive

# example entries with known answers
- MOLECULE: "CCN1/C(=C/C=C/c2sc3ccccc3[n+]2CC)Sc2ccccc21"
  LABEL_CLASS: "inactive"
- MOLECULE: "CN(CC(=O)NC(c1ccccc1)c1ccccc1)Cc1nc2ccccc2c(=O)[nH]1"
  LABEL_CLASS: "inactive"
- MOLECULE: "COc1ccc(N2C(=O)/C(=C/c3ccco3)C(=O)NC2=S)cc1"
  LABEL_CLASS: "active"
- MOLECULE: "O=C(O)CNS(=O)(=O)c1ccc2c3c(cccc13)C(=O)N2"
  LABEL_CLASS: "inactive"
- MOLECULE: "Cc1nn(C(C)C)c(C)c1CN1CCC(C(=O)Nc2cccc(-c3cccc(F)c3)c2)CC1"
  LABEL_CLASS: "active"

Which result was noted for this molecule in the test: CN(c1ccccc1C(=O)O)S(=O)(=O)c1ccc2c3c(cccc13)C(=O)N2
inactive

Kindly provide the recorded test outcome for the following molecule: CCOC(=O)C1=C(C)N=c2s/c(=C/c3cccc([N+](=O)[O-])c3O)c(=O)n2C1c1ccc(OC)cc1OC (stereo not given)
inactive

Could you please tell me the result logged for COc1cc(NC(=S)NCCC(c2ccccc2)c2ccccc2)cc(OC)c1 in this assay?
inactive

Returns: the outcome recorded for Cc1cc(Cn2nc(-c3ccccc3)cc2C(=O)NCc2cccc(C(F)(F)F)c2)on1 in this assay.
inactive

Hello, I am checking results. What call was entered for S=C(NCCC(c1ccccc1)c1ccccc1)Nc1cccc(Cl)c1 ?
active
